Data origin: patent US20260234242A1

Target: T1, his-tagged human CDH6 extracellular region protein (hCDH6 ECD-his) (human, UniProt P55285 19-615)
T1 construct: also called Human CDH6-his; hCDH6-his; not shown: his tag
T1 sequence: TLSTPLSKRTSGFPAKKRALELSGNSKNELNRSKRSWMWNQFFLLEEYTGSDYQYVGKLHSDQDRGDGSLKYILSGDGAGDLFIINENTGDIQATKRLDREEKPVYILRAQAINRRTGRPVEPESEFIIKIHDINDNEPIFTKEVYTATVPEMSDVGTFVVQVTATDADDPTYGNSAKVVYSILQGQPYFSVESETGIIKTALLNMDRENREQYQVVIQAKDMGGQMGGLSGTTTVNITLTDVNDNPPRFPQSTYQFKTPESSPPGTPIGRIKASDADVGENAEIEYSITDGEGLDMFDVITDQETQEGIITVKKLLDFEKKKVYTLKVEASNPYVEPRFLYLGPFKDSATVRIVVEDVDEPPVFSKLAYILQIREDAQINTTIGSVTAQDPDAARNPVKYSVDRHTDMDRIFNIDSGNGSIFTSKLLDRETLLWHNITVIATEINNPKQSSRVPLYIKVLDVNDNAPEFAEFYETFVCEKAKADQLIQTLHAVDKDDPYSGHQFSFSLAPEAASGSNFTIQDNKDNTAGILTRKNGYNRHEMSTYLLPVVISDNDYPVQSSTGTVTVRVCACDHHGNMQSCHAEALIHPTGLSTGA
Test: ELISA, coated antigen
Reported metric: EC50 (nM)

[[record]]
binder = "hCDH6-14-H4L3 (antibody, V domains shown, Humanized) VH: EVQLVQSGAEVKKPGASVKVSCKASGYTFTDNYINWVRQAPGQGLEWMGWIYPGTGNSYYNEKFKGRVTITVDTSASTAYMELSSLRSEDTAVYYCASSYGDSFDYWGQGTTVTVSS VL: DIVMTQSPDSLAVSLGERATINCRASQDIRNYLNWYQQKPGQTPKLLISYTSRLHSGVPDRFSGSGSGTDFTLTISSLQAEDVAVYYCQQYSQLPWTFGGGTKVEIK"
measured = 0.084

[[record]]
binder = "hCDH6-1-H3L1 (antibody, V domains shown, Humanized) VH: EVQLVQSGAEVKKPGSSVKVSCKASGYTFTNYWMHWVRQAPGQGLEWMGDIDPSHSETHYTQKFKDRVTLTVDKSTSTAYMELSSLRSEDTAVYYCARGDLGRFDYWGQGTTVTVSS VL: DIVMTQSPDSLAVSLGERATINCRASESVSIHGTHLMHWYQQKPGQPPKLLIYAASNLESGVPDRFSGSGSETDFTLTISSLQAEDVAVYYCQQSFEDPWTFGGGTKVEIK"
measured = 0.026

